Assay: TOX21_p53_BLA_p3_viability: Viability Assessment in the Tox21 HCT-116 p53 Agonism Beta-lactamase Assay, Phase 3 (AID 2283593);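 also: cells exposed to compound for 16 h before reading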
Results filed as inconclusive are left out. Activity calls are given as the source filed them. The calls were made as follows: active = hit-call score of the fitted dose curve at least 0.9, where 1 is the maximum; inconclusive = response in the unintended direction; inactive = score below 0.9.
// one of TRUE for active, FALSE for inactive, no free text

Please share the test call associated with `CN(C)N` .
FALSE

Please share the test call associated with `NC(=S)C(N)=S` .
FALSE

Please share the test call associated with `O=C(O)CCCO` .
FALSE

Please share the test call associated with C(CCOCC1CO1)COCC1CO1 (stereo unspecified) .
FALSE

More entries:
Please share the test call associated with CNCC(O)c1ccc(O)cc1 (stereo unspecified) .
FALSE

Please share the test call associated with `N#CCc1ccccc1` .
FALSE

Please share the test call associated with `CC(C)CCCCCCCOP(=O)(Oc1ccccc1)Oc1ccccc1` .
FALSE

Please share the test call associated with `CCCCNP(N)(N)=S` .
FALSE

Please share the test call associated with `ClC=CCCl` .
FALSE

Please share the test call associated with `CC=Cc1ccc2c(c1)OCO2` .
FALSE

Please share the test call associated with CC(Cc1ccc2c(c1)OCO2)NO (stereo unspecified) .
FALSE

Please share the test call associated with CCOC(=O)C(Cl)C(C)=O (stereo unspecified) .
FALSE

Please share the test call associated with `Nc1ccccc1C(=O)Oc1ccc2ccccc2c1` .
FALSE

Please share the test call associated with `CCCCCCC[CH2][Sn]([Cl])([Cl])[CH2]CCCCCCC` .
TRUE

Please share the test call associated with `O=C(CCCN1CCC(n2c(=O)[nH]c3ccccc32)CC1)c1ccc(F)cc1` .
FALSE

Please share the test call associated with `CN=CNc1ccc(C)cc1C` .
FALSE

----------
Molecular target: human Thyroid Receptor alpha (THRa1), THRA (gene 7067)
Experiment: ATG_THRa1_TRANS: Attagene TRANS-FACTORIAL HepG2 Assay for human Thyroid Receptor alpha (THRa1) (AID 2283014)
Procedure: ATG_TRANS is a cell-based, multiplexed-readout assay that uses HepG2, a human liver cell line, with measurements taken at 24 hours after chemical dosing in a 24-well plate.ATG_THRa1_TRANS is one of 30 assay component(s) measured or calculated from the ATG_TRANS assay. […] This assay endpoint, ATG_THRa1_TRANS, was analyzed in the positive analysis fitting direction relative to DMSO as the negative control and baseline of activity. […]
Results filed as inconclusive are left out. Activity calls are given as the source filed them. Rule for the calls: active = hit-call score of the fitted dose curve at least 0.9, where 1 is the maximum; inconclusive = response in the unintended direction; inactive = score below 0.9.
// one of active, inactive, no free text

Please share the test call associated with `O=S(=O)(O)O` .
inactive

Please share the test call associated with `CCCCCCCCCCCC#N` .
inactive

Please share the test call associated with `C=CC(=O)OC` .
inactive

Please share the test call associated with `CCC(=O)c1ccc(Cl)cc1` .
inactive

Please share the test call associated with CC(=O)c1cc2c(cc1C)C(C)(C)C(C)CC2(C)C (stereo unspecified) .
inactive

More entries:
Please share the test call associated with `CC(C)C#N` .
inactive

Please share the test call associated with `O=C(CCl)c1ccccc1` .
active

Please share the test call associated with `O=[N+]([O-])c1cc([N+](=O)[O-])c2ccccc2c1` .
inactive

Please share the test call associated with `CC=Cc1ccc2c(c1)OCO2` .
inactive

Please share the test call associated with `C[C@]12CC[C@H](O)C[C@H]1CC[C@@H]1[C@@H]2C[C@@H](O)[C@]2(C)[C@@H](C3=CC(=O)OC3)CC[C@]12O` .
inactive

Please share the test call associated with `C=Cc1cccc(CCl)c1` .
inactive
